- Tested Target: human Pol II (Homo sapiens, UniProt P24928+P30876)
- Construct: Pol II was isolated from Aspergillus nidulans, Saccharomyces cerevisiae, and human cells; endogenous in cells; enzyme isolated from them
- Assay Name: RNA polymerase II counterscreen, human pol II
- Assay type: biochemical
- Test Settings: Table 2; read-out: IC50 Human pol II
pIC50: −log10 of the molar value.
Property Name: pIC50

1. O=C(O)c1cc(N=Nc2cccc(C(F)(F)F)c2)ccc1O :: 3.83
2. O=Cc1cc(/N=N/c2cccc(C(F)(F)F)c2)ccc1O :: 4.09
3. OB(O)c1cc(C=Cc2cccc(C(F)(F)F)c2)ccc1O :: 3.87
4. Cc1cccc(N=Nc2ccc(O)cc2)c1 [Compound 5, 4-[-2-[3-(methyl)phenyl]diazenyl]-phenol] :: 3.47
5. O=[N+]([O-])c1cc(C(F)(F)F)ccc1N=Nc1ccc(O)cc1 :: 3.52
6. Oc1ccc(C=Cc2cccc(C(F)(F)F)c2)cc1Br :: 4.08

----------
- Tested Target: C. albicans RNA polymerase II (Candida albicans, UniProt A0A1D8PUA6+Q5A8Y5)
- Construct: RNA elongation assay on calf thymus DNA
- Sequence (A0A1D8PUA6 1-1728): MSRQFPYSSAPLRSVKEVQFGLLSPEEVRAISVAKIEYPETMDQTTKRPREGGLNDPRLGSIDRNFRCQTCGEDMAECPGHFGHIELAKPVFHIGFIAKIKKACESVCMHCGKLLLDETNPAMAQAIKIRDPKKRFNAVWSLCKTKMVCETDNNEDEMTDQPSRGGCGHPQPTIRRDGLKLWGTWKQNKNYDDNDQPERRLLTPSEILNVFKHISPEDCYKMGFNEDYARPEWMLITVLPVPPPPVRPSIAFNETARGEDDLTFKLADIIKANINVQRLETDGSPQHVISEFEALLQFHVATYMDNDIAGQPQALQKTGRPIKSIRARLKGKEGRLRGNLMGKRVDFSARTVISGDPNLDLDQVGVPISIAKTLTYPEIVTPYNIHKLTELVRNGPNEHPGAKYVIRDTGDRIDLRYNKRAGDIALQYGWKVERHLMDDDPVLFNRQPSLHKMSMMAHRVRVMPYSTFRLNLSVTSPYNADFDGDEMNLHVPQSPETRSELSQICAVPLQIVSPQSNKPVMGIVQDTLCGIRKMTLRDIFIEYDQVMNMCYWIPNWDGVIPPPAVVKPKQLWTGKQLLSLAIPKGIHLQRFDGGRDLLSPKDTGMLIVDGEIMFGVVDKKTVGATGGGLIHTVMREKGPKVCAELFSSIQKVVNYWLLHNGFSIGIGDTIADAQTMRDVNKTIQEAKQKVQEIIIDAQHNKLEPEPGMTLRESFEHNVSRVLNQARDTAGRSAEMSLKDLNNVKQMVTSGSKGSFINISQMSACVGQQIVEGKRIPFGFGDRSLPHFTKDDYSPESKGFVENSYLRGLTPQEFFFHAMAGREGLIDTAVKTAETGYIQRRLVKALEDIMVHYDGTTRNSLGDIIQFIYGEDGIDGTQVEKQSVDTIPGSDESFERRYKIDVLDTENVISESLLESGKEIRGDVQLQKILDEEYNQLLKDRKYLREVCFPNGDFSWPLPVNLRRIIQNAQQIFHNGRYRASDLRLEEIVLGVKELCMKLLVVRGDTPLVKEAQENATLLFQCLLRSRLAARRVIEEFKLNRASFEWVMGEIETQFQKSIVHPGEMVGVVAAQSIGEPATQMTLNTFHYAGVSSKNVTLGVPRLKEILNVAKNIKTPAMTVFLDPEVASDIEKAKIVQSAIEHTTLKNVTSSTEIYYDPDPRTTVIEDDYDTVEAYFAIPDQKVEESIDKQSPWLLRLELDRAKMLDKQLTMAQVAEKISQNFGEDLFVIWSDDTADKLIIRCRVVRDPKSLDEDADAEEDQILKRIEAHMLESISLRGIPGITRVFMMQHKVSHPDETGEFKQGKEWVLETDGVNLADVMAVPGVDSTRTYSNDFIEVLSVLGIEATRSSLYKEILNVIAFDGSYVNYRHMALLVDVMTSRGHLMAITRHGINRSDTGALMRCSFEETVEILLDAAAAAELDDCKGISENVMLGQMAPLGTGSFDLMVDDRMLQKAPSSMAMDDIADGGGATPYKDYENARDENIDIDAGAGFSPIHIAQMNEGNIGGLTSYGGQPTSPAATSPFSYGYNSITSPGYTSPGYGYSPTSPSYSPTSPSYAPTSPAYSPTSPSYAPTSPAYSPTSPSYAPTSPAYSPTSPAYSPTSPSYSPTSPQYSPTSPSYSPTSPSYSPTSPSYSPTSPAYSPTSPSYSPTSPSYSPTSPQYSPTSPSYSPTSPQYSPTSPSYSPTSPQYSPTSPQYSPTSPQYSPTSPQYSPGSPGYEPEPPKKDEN
- Sequence (Q5A8Y5 1-1234): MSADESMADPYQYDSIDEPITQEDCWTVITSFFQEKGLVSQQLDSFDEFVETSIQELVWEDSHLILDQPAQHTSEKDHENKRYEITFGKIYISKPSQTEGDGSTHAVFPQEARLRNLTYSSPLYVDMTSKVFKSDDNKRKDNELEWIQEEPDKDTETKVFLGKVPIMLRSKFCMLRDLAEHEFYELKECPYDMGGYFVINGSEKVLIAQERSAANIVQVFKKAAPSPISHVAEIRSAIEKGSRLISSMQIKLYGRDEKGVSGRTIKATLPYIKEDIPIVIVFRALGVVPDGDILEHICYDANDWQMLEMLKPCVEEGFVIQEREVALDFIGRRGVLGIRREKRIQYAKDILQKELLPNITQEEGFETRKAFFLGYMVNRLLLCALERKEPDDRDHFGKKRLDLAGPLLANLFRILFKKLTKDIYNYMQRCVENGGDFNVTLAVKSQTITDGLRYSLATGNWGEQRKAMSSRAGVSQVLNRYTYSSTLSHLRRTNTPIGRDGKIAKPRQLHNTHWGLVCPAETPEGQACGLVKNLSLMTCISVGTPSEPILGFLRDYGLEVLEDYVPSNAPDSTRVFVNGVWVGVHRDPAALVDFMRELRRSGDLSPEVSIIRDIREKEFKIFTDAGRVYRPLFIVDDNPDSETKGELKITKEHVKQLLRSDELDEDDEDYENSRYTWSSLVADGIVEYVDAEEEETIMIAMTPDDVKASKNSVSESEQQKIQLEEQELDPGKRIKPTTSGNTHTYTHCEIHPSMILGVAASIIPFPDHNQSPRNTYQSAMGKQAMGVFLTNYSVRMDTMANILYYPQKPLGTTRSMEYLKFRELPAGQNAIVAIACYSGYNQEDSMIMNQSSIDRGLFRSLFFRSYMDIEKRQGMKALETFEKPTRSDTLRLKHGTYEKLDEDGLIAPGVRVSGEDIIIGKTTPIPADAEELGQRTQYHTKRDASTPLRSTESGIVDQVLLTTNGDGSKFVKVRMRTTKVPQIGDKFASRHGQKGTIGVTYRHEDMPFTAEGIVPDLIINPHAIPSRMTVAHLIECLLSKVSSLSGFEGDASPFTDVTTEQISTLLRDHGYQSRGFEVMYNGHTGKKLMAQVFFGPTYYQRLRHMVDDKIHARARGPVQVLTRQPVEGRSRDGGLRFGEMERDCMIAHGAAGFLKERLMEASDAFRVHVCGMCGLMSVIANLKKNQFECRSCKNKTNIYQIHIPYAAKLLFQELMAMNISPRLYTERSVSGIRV
- Assay Name: biochemical
- Test Settings: Table 2; read-out: IC50 Candida pol II
- Procedure: The following procedure is used for cell-free high-throughput screening. A Tomtec Quadra 96-well pipetting station is used to add the reaction components to polypropylene 96-well dishes. […] After incubation for 60 min at 30 C, the reaction is stopped by addition of 50 μl 15% trichloroacetic acid (TCA). […] The wells of the microtiter plate and the filter are washed twice with 5% TCA and bound radioactivity is determined using a Wallac microbeta 1450 scintillation counter. […]
Property Name: IC50 (µM)

1) O=[N+]([O-])c1cc(N=Nc2cccc(C(F)(F)F)c2)ccc1O [Compound 8] :: 103
2) O=Cc1cc(/N=N/c2cccc(C(F)(F)F)c2)ccc1O [Compound 10] :: 34
3) OB(O)c1cc(C=Cc2cccc(C(F)(F)F)c2)ccc1O [Compound 27] :: 58

----------
- Tested Target: C. albicans RNA polymerase II (Candida albicans, UniProt A0A1D8PUA6+Q5A8Y5)
- Construct: RNA elongation assay on calf thymus DNA
- Assay Name: biochemical
- Test Settings: at 20 μM, screening of azo library
Mark rule not met for inhibition at 20 µM values under 40%, and rule met for everything at or above.

1. Oc1ccc(N=Nc2cccc(C(F)(F)F)c2)cc1 [Compound 1] :: rule met
2. OCc1cc(N=Nc2cccc(C(F)(F)F)c2)ccc1O [Compound 19] :: rule not met
3. Oc1ccc(N=Nc2ccc(F)c(C(F)(F)F)c2)cc1 [Compound 14] :: rule met
4. Oc1ccc(N=Nc2cc(C(F)(F)F)cc(C(F)(F)F)c2)cc1 [Compound 16] :: rule not met
5. O=[N+]([O-])c1cc(O)ccc1N=Nc1cccc(C(F)(F)F)c1 [Compound 23] :: rule not met
6. Oc1ccc(N=Nc2cccc(Cl)c2)cc1 [Compound 11, 4-[-2-[3-(chloro)phenyl]diazenyl]phenol] :: rule met
7. COc1cc(N=Nc2ccc(O)cc2)cc(C(F)(F)F)c1 [Compound 17] :: rule met

----------
- Tested Target: human Pol II (Homo sapiens, UniProt P24928+P30876)
- Construct: Pol II was isolated from Aspergillus nidulans, Saccharomyces cerevisiae, and human cells; endogenous in cells; enzyme isolated from them
- Assay Name: RNA polymerase II counterscreen, human pol II
- Format: biochemical
- Test Settings: Table 1; read-out: IC50 Human pol II
Property Name: IC50 (µM)

1. O=C(Nc1ccc(O)cc1)c1cccc(C(F)(F)F)c1 :: 500
2. O=C(Nc1cccc(C(F)(F)F)c1)c1ccc(O)cc1 :: 82

Cited source for all entries: patent US6165998A
